conditionDescription: in acetone, 293.15 K
endpointName: solubility (mole fraction)
Lab note: record the figure alone, no unit after it.

input: Need solubility (mole fraction), item "C=CC(=O)N1CCC[C@@H](n2nc(-c3ccc(Oc4ccccc4)cc3)c3c(N)ncnc32)C1"
output: 0.00573

---

conditionDescription: in acetone, 313.15 K
endpointName: solubility (mole fraction)
Please reply with the value in numeric form only.

input: For "C=CC(=O)N1CCC[C@@H](n2nc(-c3ccc(Oc4ccccc4)cc3)c3c(N)ncnc32)C1" , what is its reported solubility (mole fraction)?
output: 0.0108

---

conditionDescription: in ethyl acetate, 313.15 K
endpointName: solubility (mole fraction)
Keep the answer to the number alone.

input: Any idea what solubility (mole fraction) was measured for "C=CC(=O)N1CCC[C@@H](n2nc(-c3ccc(Oc4ccccc4)cc3)c3c(N)ncnc32)C1" ?
output: 0.0083

---

conditionDescription: in acetone, 303.15 K
endpointName: solubility (mole fraction)
In your answer, state the number alone without any accompanying words.

input: Name the recorded solubility (mole fraction) for "C=CC(=O)N1CCC[C@@H](n2nc(-c3ccc(Oc4ccccc4)cc3)c3c(N)ncnc32)C1" .
output: 0.00794

---

conditionDescription: in n-butanol, 283.15 K
endpointName: solubility (mole fraction)
No unit in the answer, only the number.

input: Can you look up the measured solubility (mole fraction) of "C=CC(=O)N1CCC[C@@H](n2nc(-c3ccc(Oc4ccccc4)cc3)c3c(N)ncnc32)C1" for me?
output: 0.00163

---

conditionDescription: in isopropanol, 298.15 K
endpointName: solubility (mole fraction)
Would you mind answering with just the numeric figure?

input: I have this compound here, "C=CC(=O)N1CCC[C@@H](n2nc(-c3ccc(Oc4ccccc4)cc3)c3c(N)ncnc32)C1" , and I need its recorded solubility (mole fraction).
output: 0.00123

---

conditionDescription: in isopropanol, 283.15 K
endpointName: solubility (mole fraction)
Output spec: single numeric token, no unit.

input: Field request: solubility (mole fraction) | item: "C=CC(=O)N1CCC[C@@H](n2nc(-c3ccc(Oc4ccccc4)cc3)c3c(N)ncnc32)C1"
output: 0.000547

---

conditionDescription: in isopropanol, 303.15 K
endpointName: solubility (mole fraction)
# respond with the number and nothing more

input: // query solubility (mole fraction) value for entry "C=CC(=O)N1CCC[C@@H](n2nc(-c3ccc(Oc4ccccc4)cc3)c3c(N)ncnc32)C1"
output: 0.00165

---

conditionDescription: in 2-butanone, 278.15 K
endpointName: solubility (mole fraction)
Please reply with the value in numeric form only.

input: Need solubility (mole fraction) of "C=CC(=O)N1CCC[C@@H](n2nc(-c3ccc(Oc4ccccc4)cc3)c3c(N)ncnc32)C1" , thanks.
output: 0.00549

---

conditionDescription: in n-butanol, 288.15 K
endpointName: solubility (mole fraction)
Just the number, please, no unit attached.

input: For "C=CC(=O)N1CCC[C@@H](n2nc(-c3ccc(Oc4ccccc4)cc3)c3c(N)ncnc32)C1" , what is its reported solubility (mole fraction)?
output: 0.00206

---

conditionDescription: in MTBE, 303.15 K
endpointName: solubility (mole fraction)
The reply should be a number, written without any unit.

input: Requested field: solubility (mole fraction). Item: "C=CC(=O)N1CCC[C@@H](n2nc(-c3ccc(Oc4ccccc4)cc3)c3c(N)ncnc32)C1"
output: 0.00037

Recorded values, source BigSolDB 2.1.
